# target: MCL-1/Bim interaction (recombinant human MCL-1 protein, residues 171-327; biotinylated human Bim peptide, residues 51-76) (Homo sapiens (Human))
# Sequence (Q07820 171-327): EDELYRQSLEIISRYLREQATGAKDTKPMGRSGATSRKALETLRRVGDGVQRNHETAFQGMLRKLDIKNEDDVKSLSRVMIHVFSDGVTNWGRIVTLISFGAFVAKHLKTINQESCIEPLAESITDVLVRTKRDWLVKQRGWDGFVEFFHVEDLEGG
# procedure summary: MCL-1/Bim Binding AlphaLISA Assay
# test context: 0.0625 nM 6xHis-Mcl-1 (171-327), 0.0625 nM biotinylated-Bim peptide
pIC50: −log10 of the molar value.
reported property: pIC50

(P) CO[C@H]1/C=C/C[C@H](C)C[S@@](=O)(NC(=O)C2CC(C)(OC)C2)=NC(=O)c2ccc3c(c2)N(C[C@@H]2CC[C@H]21)C[C@@]1(CCCc2cc(Cl)ccc21)CO3 (stereo partly shown)
(Q) COc1nn(C)cc1C(=O)N[S@@]1(=O)=NC(=O)c2ccc3c(c2)N(C[C@@H]2CC[C@H]2[C@@H](OC)/C=C/[C@H](OC)[C@H](C)C1)C[C@@]1(CCCc2cc(Cl)ccc21)CO3
(R) COc1c(C(=O)N[S@@]2(=O)=NC(=O)c3ccc4c(c3)N(C[C@@H]3CC[C@H]3[C@@H](OC)/C=C/C[C@H](C)C2)C[C@@]2(CCCc3cc(Cl)ccc32)CO4)cn2c1C[C@@H](OC)C2
(S) COc1nn(C)cc1C(=O)N[S@@]1(=O)=NC(=O)c2ccc3c(c2)N(C[C@@H]2CC[C@H]2[C@@H](OC)/C=C/[C@@H](OC)CC1)C[C@@]1(CCCc2cc(Cl)ccc21)CO3
Query: Sort the items above on pIC50, descending. Returns: the labels listed in the requested order.
Response: Q, P, R, S

(a) CO[C@H]1/C=C/C[C@H](C)C[S@@](=O)(NC(=O)N[C@@H]2C[C@H]2OC)=NC(=O)c2ccc3c(c2)N(C[C@@H]2CC[C@H]21)C[C@@]1(CCCc2cc(Cl)ccc21)CO3 (single isomer, unassigned)
(b) CO[C@H]1/C=C/C[C@H](C)C[S@@](=O)(NC(=O)NC2CC3(C2)CC(F)(F)C3)=NC(=O)c2ccc3c(c2)N(C[C@@H]2CC[C@H]21)C[C@@]1(CCCc2cc(Cl)ccc21)CO3
Query: Please state the entry with greater pIC50 among a and b . To answer, give the label that identifies your chosen option.
Response: a
(a: 10.40, b: 9.52)

(a) COC1CN(C(=O)N[S@@]2(=O)=NC(=O)c3ccc4c(c3)N(C[C@@H]3CC[C@H]3[C@@H](OC)CCC[C@H](C)C2)C[C@@]2(CCCc3cc(Cl)ccc32)CO4)C1
(b) CO[C@H]1/C=C/CCC[S@@](=O)(NC(=O)CCc2nccn2C)=NC(=O)c2ccc3c(c2)N(C[C@@H]2CC[C@H]21)C[C@@]1(CCCc2cc(Cl)ccc21)CO3
(c) COc1nn(C2CC2)cc1C(=O)N[S@@]1(=O)=NC(=O)c2ccc3c(c2)N(C[C@@H]2CC[C@H]2[C@@H](OC)/C=C/C[C@H](C)C1)C[C@@]1(CCCc2cc(Cl)ccc21)CO3
Query: Order the records so the highest pIC50 appears first and the lowest last. Returns: the labels listed in the requested order.
Response: a, c, b

Each recorded value in this set is attributed to patent US10703733B2.
